Sourced from ChEMBL document CHEMBL1201862

System: NCI-H23
Measurement protocol: NCI tumour cell line growth inhibition, 48 h
Activity calls are given as the source filed them. Cut-off read from the data, not from the text of the source: active = GI50 up to about 1.1 µM and inactive = higher.
API: response.call in active, inactive

These recorded examples may help you get a feel for the data.
{"Compound": "CCSC1=N/C(=C\\c2ccccc2O)C(Nc2ccc(C)cc2)=N1", "Category": "inactive"}
{"Compound": "Cc1n[n+](CC(=O)c2ccccc2)c2sc(N)nn12", "Category": "inactive"}
{"Compound": "COC(CNC(=O)C(C)NC(=O)C(C)NC(=O)c1ccccc1)OC (stereo not given)", "Category": "inactive"}
{"Compound": "CN(C)CCNc1nc2c(no[n+]2[O-])c2ccccc12.[O-][Cl+3]([O-])([O-])O", "Category": "inactive"}
{"Compound": "CN(C)CC1CCC/C(=C\\c2ccc(OC(=O)/C=C/c3ccc(Cl)cc3)cc2)C1=O (stereo not given)", "Category": "inactive"}
{"Compound": "Cc1c[n+]([O-])c2ccccc2[n+]1[O-]", "Category": "inactive"}

Recorded test call requested for CN(C)c1ccc(/N=C2/C=CC(=C(C#N)C#N)c3ccccc32)cc1
active

Recorded test call requested for CCCCCCCCCC1C(C)c2c([nH]c3ccccc23)C2C(=O)N(c3ccccc3)C(=O)C21 (stereo not given)
inactive

Recorded test call requested for Nc1nc(-c2ccccc2)nc2oc(-c3cccs3)nc12
inactive

Recorded test call requested for O=C(OCC(OC(=O)c1ccccc1)C(OC(=O)c1ccccc1)C(OC(=O)c1ccccc1)c1cnn(-c2ccccc2)n1)c1ccccc1 (stereo not given)
inactive

* * *

Tested on: NCI-H23
Measurement protocol: NCI tumour cell line growth inhibition, 48 h
Activity calls are given as the source filed them. No stated cut-off is given here; in the data, active = GI50 up to about 1.1 µM and inactive = higher.
Measurement type: GI50

{"Molecule": "NC1CCCCC1.O=C(CP(=O)(O)O)NC(CC(=O)OCc1ccccc1)C(=O)OCc1ccccc1 (stereo not given)", "GI50": "> 100 µM (inactive)"}

Indicate the recorded GI50 value for this molecule: COCn1cnc2c(=O)n(-c3ccc(OC)cc3)c(=S)n(-c3ccc(OC)cc3)c21
> 100 µM (inactive)

Indicate the recorded GI50 value for this molecule: CC1(CCCC2(C)CCNC2=O)OCCO1 (stereo not given)
> 10 µM (inactive)

Indicate the recorded GI50 value for this molecule: CC(=O)Oc1c(-c2ccccc2)oc2ccccc12
1.77 µM (inactive)

Indicate the recorded GI50 value for this molecule: CC(=O)Oc1ccc2c(c1)CC[C@@H]1C2CC[C@]2(C)C(=O)NC(=O)CC12 (stereo not given in full)
> 100 µM (inactive)

Indicate the recorded GI50 value for this molecule: Cc1ccc(-c2n[nH]c(=O)n2NC(=O)c2ccccc2C(=O)O)cc1
> 100 µM (inactive)

Indicate the recorded GI50 value for this molecule: CC1C(=O)OC2CC[N+]3([O-])CC=C(COC(=O)C(C)(O)C1(C)O)C23 (stereo not given)
> 100 µM (inactive)

Indicate the recorded GI50 value for this molecule: Cc1ccc(S(=O)(=O)NNC(C[N+](=O)[O-])c2ccccc2)cc1 (stereo not given)
43 µM (inactive)

Indicate the recorded GI50 value for this molecule: CN(C)CCn1c(=O)c2ccc(NCCCN(C)CCCNc3ccc4c(=O)n(CCN(C)C)c(=O)n5c6ccc([N+](=O)[O-])cc6c(=O)c3c45)c3c(=O)c4cc([N+](=O)[O-])ccc4n(c1=O)c23
< 0.01 µM (active)

Indicate the recorded GI50 value for this molecule: S=c1sc2c(s1)SCCCCSCCCCSc1sc(=S)sc1SCCCCSCCCCS2
> 100 µM (inactive)

Indicate the recorded GI50 value for this molecule: CC1=C(C(=O)c2ccccc2)C23C(=O)N(c4ccccc4)C(=O)C2=C(O)C=CC3(O)N1 (stereo not given)
44.2 µM (inactive)

Indicate the recorded GI50 value for this molecule: CCOC(=O)c1c(NNc2ccccc2)nc2ccccc2c1-c1ccccc1
19.5 µM (inactive)

Indicate the recorded GI50 value for this molecule: Clc1ccc(-c2nnc(-c3cccc4ccccc34)o2)cc1Cl
> 100 µM (inactive)

Indicate the recorded GI50 value for this molecule: O=P(Oc1ccc(Cl)cc1)(Oc1ccc(Cl)cc1)N1CC1
> 10 µM (inactive)

Indicate the recorded GI50 value for this molecule: C=C1C(=O)OC2CC1C(O)C/C(C)=C/CC/C(C)=C/C(O)CC2C (stereo not given)
2.44 µM (inactive)

Indicate the recorded GI50 value for this molecule: CC(C)C[C@H](NC(=O)[C@H](Cc1ccc(F)cc1)NC(=O)c1ccccn1)B(O)O
< 0.01 µM (active)

Indicate the recorded GI50 value for this molecule: ClC1(Cl)C2CCOC21n1cnc2ccccc21 (stereo not given)
45 µM (inactive)

Indicate the recorded GI50 value for this molecule: CC(=O)c1ccc2c3c1[C@@H]1O[C@@H]1c1cccc(c1-3)[C@@H]1O[C@H]21
7 µM (inactive)

Indicate the recorded GI50 value for this molecule: O=[N+]([O-])c1cc(F)ccc1Sc1ccccc1
> 10 µM (inactive)

Indicate the recorded GI50 value for this molecule: Cn1c(O)c(C(=O)NC2CCCCC2)c(=O)n(C)c1=S
4.4 µM (inactive)
